System: myoglobin (Myo)
Assay: Intact protein MS photoaffinity labeling screen, myoglobin
Type: binding
Details: intact protein MS after 10 min irradiation
Protocol: Using a plate-based format with one fragment per well, each fragment was incubated with the target proteins for 15 min to allow for the formation of non-covalent interactions. […] Finally, the results were directly analyzed from the plate using intact protein mass spectrometry by observing the mass additions that correspond to successful labeling (Fig. 2c, for labeling % values see Supplementary data). […]
Kindly state MS labeling percentage, Myo for each of the entries shown.
Give bare numbers, in %.

Examples from the recorded data:
IN: Quick check: MS labeling percentage, Myo on myoglobin (Myo), item `Cc1ccc2[nH]c(CNC(=O)CCC3(C)N=N3)nc2c1` ?
OUT: 0.4

IN: Requested read-out MS labeling percentage, Myo, target or system myoglobin (Myo), entry CC1(CCC(=O)NC2CCc3nc(C(C)(C)C)cn3C2)N=N1 (centres unmarked)
OUT: 0.2

IN: Observed MS labeling percentage, Myo on myoglobin (Myo) for CC1(CCC(=O)NCCc2nc3ccccc3[nH]2)N=N1 [PhP031, N1=NC1(C)CCC(=O)NCCc(n2)[nH]c(c23)cccc3] , please.
OUT: 0.3

Give one value of MS labeling percentage, Myo per listed compound.
1. CC1(CCC(=O)Nc2cccc(-n3cnnn3)c2)N=N1
2. CCOC(=O)c1c(NC(=O)CCC2(C)N=N2)sc2c1CCN(Cc1ccccc1)C2

OUT:
[0.2, 0.1]

----------
tested on: carbonic anhydrase II (CA); assay: Intact protein MS photoaffinity labeling screen, carbonic anhydrase; format: binding; conditions: intact protein MS after 10 min irradiation
Would you kindly list MS labeling percentage, CA for each of these molecules?
Numbers only, in %.

IN: Query: MS labeling percentage, CA; subject: CC1(CCC(=O)NCCCc2nc[nH]n2)N=N1 [PhP066, N1=NC1(C)CCC(=O)NCCCc2nc[nH]n2]
OUT: 0.3

IN: Which MS labeling percentage, CA is reported for this molecule? `Cc1nc(NC(=O)CCC2(C)N=N2)c2cnn(-c3ccc(F)cc3)c2n1`
OUT: 0.3

IN: Entry `Cn1cnc(CCNC(=O)CCC2(C)N=N2)c1` has what MS labeling percentage, CA?
OUT: 0.7

IN: Item under review: Cc1cc2ncn(CC(O)CNC(=O)CCC3(C)N=N3)c2cc1C (stereo not shown) . Reported MS labeling percentage, CA?
OUT: 0.2

IN: Which MS labeling percentage, CA reading was recorded for the molecule COc1ccc(OC)c(C(C)NC(=O)CCC2(C)N=N2)c1 (stereo not shown) ?
OUT: 2.3

IN: I am curious: what MS labeling percentage, CA value has been reported for `CC1(CCC(=O)Nc2cccc(-n3cnnn3)c2)N=N1` ?
OUT: 0.9

IN: Sample CC1(CCC(=O)NC2CCCN(c3ncc[nH]c3=O)C2)N=N1 (stereo not shown) [PhP029, N1=NC1(C)CCC(=O)NC2CCCN(C2)c3ncc[nH]c3=O] — what was its MS labeling percentage, CA?
OUT: 0

IN: What value of MS labeling percentage, CA has been recorded for this entry: `CC1(CCC(=O)NCc2nnc3n2CCC3)N=N1`
OUT: 0.4

Hi team, please reply with MS labeling percentage, CA for each item in this list.
1. CC1(CCC(=O)NCc2ccccc2O)N=N1
2. CC1CN(Cc2ccccc2NC(=O)CCC2(C)N=N2)CC(C)O1 (stereo not shown)
3. Cn1nccc1C(=O)NCCNC(=O)CCC1(C)N=N1
4. COc1ccc(CCNC(=O)CCC2(C)N=N2)c2ccccc12
5. CC1(CCC(=O)Nc2ccc(-c3ncccc3O)cc2)N=N1
6. CC1(CCC(=O)Nc2ccc(N3CCCCC3)cc2C(N)=O)N=N1

OUT:
1: 0; 2: 0.4; 3: 0.2; 4: 4.7; 5: 17.3; 6: 0

Record MS labeling percentage, CA per entry; entries follow.
1. Cc1nnc(C(C)NC(=O)CCC2(C)N=N2)[nH]1 (stereo not shown) [PhP090, Cc([nH]1)nnc1C(C)NC(=O)CCC2(C)N=N2]
2. CC1(CCC(=O)NCc2cccc(C(=O)OC(C)(C)C)c2)N=N1

OUT:
0.5
0.2
